B1: Caulobacter ParB omega fusion; a variant is named by its letters at X, in order, B8GW30 (parent)
chain: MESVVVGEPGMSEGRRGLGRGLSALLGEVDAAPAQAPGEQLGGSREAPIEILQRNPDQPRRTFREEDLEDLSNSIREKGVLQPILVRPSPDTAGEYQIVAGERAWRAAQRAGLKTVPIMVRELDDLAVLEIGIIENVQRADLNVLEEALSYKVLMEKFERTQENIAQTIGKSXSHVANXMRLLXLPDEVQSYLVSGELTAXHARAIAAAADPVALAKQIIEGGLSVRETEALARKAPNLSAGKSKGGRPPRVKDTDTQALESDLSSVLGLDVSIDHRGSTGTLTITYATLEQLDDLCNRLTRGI

variants of: B1; assay: one-hybrid fitness for binding NBS DNA (the Noc-binding site; scaled: cognate 1, non-cognate 0); higher = stronger binding; conditions: with NBS DNA site
The full ranking holds about 81,000 sequences; the median of “one-hybrid fitness for binding NBS DNA” is about -0.1, and the highest 2% start at about 0.36. Only a selection was taken, and the highest values are over-represented in it overall.
measuredQuantity: one-hybrid fitness for binding NBS DNA
Numbers only.

   mutant  measured
0    QCKG     0.377

Now for a further variant.
Which one-hybrid fitness for binding NBS DNA is listed for `QTTQ` ?
0.242
